Values from paper PMC2997469

# target: T1, cIAP-1 BIR3 protein
# T1 chain: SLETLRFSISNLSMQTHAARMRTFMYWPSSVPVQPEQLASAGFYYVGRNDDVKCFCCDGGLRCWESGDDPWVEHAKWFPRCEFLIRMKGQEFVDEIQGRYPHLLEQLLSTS
# procedure-details: fluorescence polarisation
No end group written: not given here.
measurement-label: Ki
For clarity, give the value followed by its unit.

Prompt: Tell me the measured Ki of AKPF (also: cyclopeptidic structure not given here) [PSmac-21 (compound 1), cyclopeptidic Smac mimetic] , please.
Response: 84 nM
